Below: a set of entries, each annotated with reported Enzyme Activity Endpoint Assay: scIgG.
biological target: pooled human IgG (human IgG1,2,3 and 4)
property: Enzyme Activity Endpoint Assay: scIgG

{"columns": ["protein", "property", "reported"],
 "data": [
  ["PRT-455 (protein) MITSVWTKGVTPPTDFIKGEDVFHAPYKAGQGWYDITKAFDGGDDLLCGAATAGNMLHWWFDQNKDQIEAYLKEHPEKQKINFNGEQMFDVKEAIDTKDDQTNSELFNYFKEKAFPYLSTKHLGVFPDHVLDMFINGYRLSLTNHGPTPVKRQEKDPRGGIFDAVFGRGDQTKLLTSRHDLKNKTLNEISQLIKQELTEGKALALSHTYANVRINHVINLWGADFDAEGNLEAIYVTDSDSNASIGMKKYFVGVNSAGKVAISAKEIEDDNIGAQVLGLFTLSTGQKIWNKTNLEHHHHHH", "Enzyme Activity Endpoint Assay: scIgG", "333 ng/µL"],
  ["PRT-243 (protein) MVTSVWTKGVTPPANFTQGEDVFHAPYVANQGWYDITKLFNGKDDLLCGAATAGNMLHWWFDQNKDQIKRYLEEHPEKQKINFNGEQMFDVKEAIDTKNHQLDSKLFDYFKEKAFPNLSTKHLGVFPDHVIDMFINGYRLSLLNHGPTPVKEGSKDPRGGIFDAVFTRGDQSKLLTSRHDFKEKNLKEISDLIKKELTEGKALGLSHTYANGRINHVINLWGADFDSNGNLKAIYVTDSDSNPSIGMKKYFVGVNSSGKVAISAKEIKEDNIGAQVLGLFTLSTGQDSWNQTN", "Enzyme Activity Endpoint Assay: scIgG", "0 ng/µL"]
]}
